Data origin: patent US7078403B1

# assay: in vitro
# stated_conditions: mammalian cell culture (cell line not stated)
result_type: CC50

Query :: So what's the measured CC50 for this one? NC(=O)c1ncn([C@@H]2O[C@H](CO)[C@@H](O)[C@H]2O)n1
Result :: > 100 µg/mL

---

Listed next: entries and their corresponding Activity on Rhinovirus Type 2 SI.
# System: HRV type 2
# assay: Inhibition of viral cytopathic effect (CPE), visual scoring or neutral red, HRV type 2 in KB cells
# Format: cell-based, human rhinovirus
# stated_conditions: selectivity index = CC50 or MTC divided by EC50; HRV type 2, KB cells

Here is how some molecules turned out for Activity on Rhinovirus Type 2 SI.
INSERT INTO assay_data (molecule, result_type, endpoint_result) VALUES
  ('CCON=Cc1ccc(OCCCC2CCN(c3ccc(Cl)nn3)CC2)cc1 [Compound 32]', 'Activity on Rhinovirus Type 2 SI', '>70'),
  ('CCON=C(C)c1ccc(OCCC2CCN(c3ccc(Cl)nn3)CC2)cc1 [Compound 3]', 'Activity on Rhinovirus Type 2 SI', '>100'),
  ('CCON=Cc1ccc(OCC2CCN(c3ccc(Cl)nn3)CC2)cc1 [Compound 31]', 'Activity on Rhinovirus Type 2 SI', '>333'),
  ('CCOC(=O)c1ccc(OCCC2CCN(c3ccc(C)nn3)CC2)cc1 [Pirodavir]', 'Activity on Rhinovirus Type 2 SI', '>300'),
  ('CCON=Cc1cc(C)c(OCCCc2cc(C)no2)c(C)c1 [Compound 24]', 'Activity on Rhinovirus Type 2 SI', '>500');

Query :: So what's the measured Activity on Rhinovirus Type 2 SI for this one? CCON=Cc1ccc(OCCC2CCN(c3ccc(Cl)nn3)CC2)c(OC)c1 [Compound 5]
Result :: >111

Query :: So what's the measured Activity on Rhinovirus Type 2 SI for this one? CCON=Cc1cccc(OCCC2CCN(c3ccc(Cl)nn3)CC2)c1 [Compound 41]
Result :: >1000

---

# Tested on: HRV type 2
# assay: Inhibition of viral cytopathic effect (CPE), visual scoring or neutral red, HRV type 2 in KB cells
# Assay type: cell-based, human rhinovirus
# stated_conditions: selectivity index = CC50 or MTC divided by EC50; HRV type 2, KB cells
Listed next: entries and their corresponding Activity on Rhinovirus Type 2 SI.

INSERT INTO results (smiles_code, result_type, endpoint_result) VALUES
  ('CON=Cc1ccc(OCCC2CCN(c3ccc(Cl)nn3)CC2)c(C)c1', 'Activity on Rhinovirus Type 2 SI', '>38');

Query :: So what's the measured Activity on Rhinovirus Type 2 SI for this one? CCON=Cc1ccc(OCCCc2cc(C)no2)cc1
Result :: >1

Query :: So what's the measured Activity on Rhinovirus Type 2 SI for this one? C=CCON=Cc1cc(C)c(OCCCc2cc(C)no2)c(C)c1
Result :: >340

Query :: So what's the measured Activity on Rhinovirus Type 2 SI for this one? C=CCON=Cc1ccc(OCCC2CCN(c3ccc(Cl)nn3)CC2)cc1
Result :: 83

Query :: So what's the measured Activity on Rhinovirus Type 2 SI for this one? CCC(=NOC)c1ccc(OCCC2CCN(c3ccc(Cl)nn3)CC2)cc1
Result :: >3

Query :: So what's the measured Activity on Rhinovirus Type 2 SI for this one? N#CCON=Cc1ccc(OCCC2CCN(c3ccc(Cl)nn3)CC2)cc1
Result :: 13
